Known log10 of EC50 of a selection of binders
biological target: T1, monkey CD19 on HEK293T-monkey CD19 cells (monkey); test: FACS on HEK293T-monkey CD19 cells
T1 construct: whole, on cells
The base-10 logarithm of EC50, taken with EC50 in nM, is what appears here.

// known answers, use as guide
[
  {
    "binder": "F4.18.13 (antibody, human IgG1, V domains shown, human-murine chimeric antibody, human IgG1) VH: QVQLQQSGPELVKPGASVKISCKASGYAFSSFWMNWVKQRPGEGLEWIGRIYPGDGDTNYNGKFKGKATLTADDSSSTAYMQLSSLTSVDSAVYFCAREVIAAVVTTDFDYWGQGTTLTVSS VL: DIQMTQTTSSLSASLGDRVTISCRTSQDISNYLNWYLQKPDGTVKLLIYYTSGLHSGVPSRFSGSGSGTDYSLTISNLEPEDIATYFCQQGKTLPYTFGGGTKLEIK",
    "property-name": "log10 of EC50",
    "recorded-measurement": 1.42
  },
  {
    "binder": "F4.191.1 (antibody, human IgG1, V domains shown, human-murine chimeric antibody, human IgG1) VH: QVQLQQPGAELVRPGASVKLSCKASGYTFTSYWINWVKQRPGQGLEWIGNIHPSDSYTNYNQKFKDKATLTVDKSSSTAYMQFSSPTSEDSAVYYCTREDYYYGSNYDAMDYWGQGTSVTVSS VL: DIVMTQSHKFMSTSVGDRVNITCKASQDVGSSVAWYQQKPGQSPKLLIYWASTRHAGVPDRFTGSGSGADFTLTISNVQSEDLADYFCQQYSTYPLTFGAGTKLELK",
    "property-name": "log10 of EC50",
    "recorded-measurement": 0.06
  },
  {
    "binder": "F6.12.12 (antibody, human IgG1, V domains shown, human-murine chimeric antibody, human IgG1) VH: DVQLQESGPGLVKPSQSLSLTCSVTGYSITSGYYWIWIRQFPGNKLEWMGYISYDASNKYKPSLKNRISITRDTSKNQFFLKLNSVTAEDTATYFCAREDLRGYFDVWGTGTSVTVSS VL: DIVLTQSPASLAVSLGRRATISCRASQSVSTSGFSYMHWYQQKPGQPPNLLIKYASILQSGVPARFSGSGSGTDFILNIHPVEDVDTATYYCQHSWGIPFTFGSGTKLEIK",
    "property-name": "log10 of EC50",
    "recorded-measurement": -0.03
  },
  {
    "binder": "F4.49.11 (antibody, human IgG1, V domains shown, human-murine chimeric antibody, human IgG1) VH: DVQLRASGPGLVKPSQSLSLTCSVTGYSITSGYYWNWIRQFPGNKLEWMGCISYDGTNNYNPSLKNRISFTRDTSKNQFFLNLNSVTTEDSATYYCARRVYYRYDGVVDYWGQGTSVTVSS VL: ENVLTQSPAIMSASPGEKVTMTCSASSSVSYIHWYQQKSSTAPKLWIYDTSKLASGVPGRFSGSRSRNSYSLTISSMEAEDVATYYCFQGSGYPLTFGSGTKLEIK",
    "property-name": "log10 of EC50",
    "recorded-measurement": 0.49
  }
]

For the next question, use this binder.
Ask: Identify measured log10 of EC50 corresponding to F3.114.12 (antibody, human IgG1, V domains shown, human-murine chimeric antibody, human IgG1) VH: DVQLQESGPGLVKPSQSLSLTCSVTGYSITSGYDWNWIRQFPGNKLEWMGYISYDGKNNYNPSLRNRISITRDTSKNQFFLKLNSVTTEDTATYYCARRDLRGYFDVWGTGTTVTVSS VL: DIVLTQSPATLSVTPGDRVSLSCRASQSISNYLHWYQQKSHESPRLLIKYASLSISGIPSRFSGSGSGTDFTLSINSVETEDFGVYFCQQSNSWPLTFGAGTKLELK
Reply: 0.19
